Listed molecules paired with reported cytotoxicity at 70.5 h
experiment: Human HepG2 cell viability assay in 384 well format; format: toxicity, cell-based; design: dose 125 nL, time 70.5 hour; concentration not given beside the values; details: HepG2 cells, read-out: Inhibition
Enter your answer as a number in %; do not include the unit.

molecule COCCN1CCCN(C(=O)NC(C)Cn2cccn2)CC1 (configuration not stated) , cytotoxicity at 70.5 h observed: -14.2

molecule `Cc1cc(CNCCNS(C)(=O)=O)sc1Br` , cytotoxicity at 70.5 h observed: 4.81

molecule O=C(CC1CC1)N1CCC2(COCc3cnc(N4CCOCC4)nc32)C1 (configuration not stated) , cytotoxicity at 70.5 h observed: -6.88

molecule CCN(C(=O)c1ccc2nnc(C3CCN(C(C)=O)C3)n2c1)C(C)C (configuration not stated) , cytotoxicity at 70.5 h observed: -12.3

molecule CC(Cn1cccn1)NC(=O)Nc1ccc(N(C)C)nc1 (configuration not stated) , cytotoxicity at 70.5 h observed: 19.1

molecule `CN(C)CCO[C@H]1CN(C(=O)c2cscn2)[C@@H]2COC[C@H]12` , cytotoxicity at 70.5 h observed: -14.3

Let us move to another entry and its cytotoxicity at 70.5 h.
molecule CCOCCN1CCN(CCC(=O)N2CCCCC2)CC1C (configuration not stated) , cytotoxicity at 70.5 h observed: -0.119
